Target: Transcription factor Jun (Homo sapiens)
Assay: Inhibition of AP-1 expressed in HEK293 cells assessed as PMA-stimulated transcriptional activation at 10 uM treated 24 hrs before PMA challenge measured after 20 to 24 hrs by luciferase reporter gene assay
Assay type: cell-based
RECORDED METRIC: inhibition (%)

INPUT SMILES	RESULT NUMBER
CC(=O)Nc1ccc(-c2cc(-c3nc4ccccc4c(=O)n3-c3ccc(Cl)cc3)sc2N2CCOCC2)cc1	17
CC(=O)c1ccc(-n2c(-c3cc(-c4ccncc4)c(N4CCOCC4)s3)nc3ccccc3c2=O)cc1	84
Cc1ccc(-n2c(-c3cc(-c4ccc(S(C)(=O)=O)cc4)c(N4CCOCC4)s3)nc3ccccc3c2=O)cc1	51
Cc1cccc(-n2c(-c3cc(-c4ccc(Cl)cc4)c(N4CCOCC4)s3)nc3ccccc3c2=O)c1	10
COc1ccccc1-n1c(-c2cc(-c3ccc(S(C)(=O)=O)cc3)c(N3CCOCC3)s2)nc2ccccc2c1=O	33
CS(=O)(=O)c1ccc(-c2cc(-c3nc4ccccc4c(=O)n3-c3ccccc3)sc2N2CCOCC2)cc1	28

---

Test system: HEK293
Assay: Cytotoxicity against TNF-alpha-stimulated HEK293 cells at 10 uM treated 24 hrs before TNFalpha challenge measured after 20 to 24 hrs
Format: cell-based
Details: human, hek293, 10 µM
RECORDED METRIC: Activity

INPUT SMILES	RECORDED METRIC	RESULT
Cc1ccccc1-n1c(-c2cc(-c3ccc(Cl)cc3)c(N3CCOCC3)s2)nc2ccccc2c1=O	Activity	Non-toxic
CC(=O)Nc1ccc(-c2cc(-c3nc4ccccc4c(=O)n3-c3cccc(C)c3)sc2N2CCOCC2)cc1	Activity	Non-toxic
O=c1c2ccccc2nc(-c2cc(-c3ccccc3)c(N3CCOCC3)s2)n1-c1ccc(Cl)cc1	Activity	Non-toxic
